Data origin, for the record: ChEMBL document CHEMBL2346521

- SYSTEM NAME: Orexin receptor type 2 (Homo sapiens)
- Sequence (O43614 whole entry): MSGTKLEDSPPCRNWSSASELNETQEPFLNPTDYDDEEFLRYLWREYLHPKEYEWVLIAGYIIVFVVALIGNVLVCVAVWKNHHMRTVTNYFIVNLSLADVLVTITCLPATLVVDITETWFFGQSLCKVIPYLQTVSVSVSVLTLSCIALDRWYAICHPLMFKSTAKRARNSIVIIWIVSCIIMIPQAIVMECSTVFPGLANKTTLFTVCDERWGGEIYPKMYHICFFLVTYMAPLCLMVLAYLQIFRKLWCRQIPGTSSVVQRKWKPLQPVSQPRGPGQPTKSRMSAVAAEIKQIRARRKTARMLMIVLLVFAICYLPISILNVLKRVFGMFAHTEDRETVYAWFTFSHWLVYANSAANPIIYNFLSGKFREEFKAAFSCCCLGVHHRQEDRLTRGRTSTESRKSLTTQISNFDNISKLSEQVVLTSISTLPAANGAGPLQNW
- PROCEDURE SUMMARY: Antagonist activity at human OX2 receptor expressed in CHO cells assessed as inhibition of orexin A-induced calcium influx by FLIPR assay
Provide the reported IC50 of each item.
Form field: result (number plus unit)

Take a look at these entries with their results.
Can you look up IC50 on Orexin receptor type 2 (Homo sapiens) for CCc1nc(C2CC2)c2n1CCN([C@@H](C(=O)NC)c1ccccc1)[C@H]2CCc1ccc(C(F)(F)F)cc1 ?
29 nM

How about this compound: CCc1nc(CC)n2c1C(CCc1ccc(C(F)(F)F)cc1)N([C@@H](C(=O)NC)c1ccccc1)CC2 (mixture of isomers)
20 nM

// batch mode: one IC50 value per listed entry
1. CCc1nc(C)c2n1CCN([C@@H](C(=O)NC)c1ccccc1)C2CCc1ccc(C(F)(F)F)cc1 (mixture of isomers)
2. CCc1nc(OC)c2n1CCN([C@@H](C(=O)NC)c1ccccc1)C2CCc1ccc(C(F)(F)F)cc1 (mixture of isomers)
3. CCc1nc(C(=O)N(C)C)c2n1CCN([C@@H](C(=O)NC)c1ccccc1)C2CCc1ccc(C(F)(F)F)cc1 (some centres not stated)
4. CNC(=O)[C@@H](c1ccccc1)N1CCn2c(CC3CC3)nc(Cl)c2[C@@H]1CCc1ccc(C(F)(F)F)cc1
5. CCc1nc(C(F)(F)F)c2n1CCN([C@@H](C(=O)NC)c1ccccc1)[C@H]2CCc1ccc(C(F)(F)F)cc1

1: 24 nM; 2: 73 nM; 3: 111 nM; 4: 35 nM; 5: 11 nM

---

- SYSTEM NAME: Orexin receptor type 2 (Homo sapiens)
- PROCEDURE SUMMARY: Antagonist activity at human OX2 receptor expressed in CHO cells assessed as inhibition of orexin A-induced calcium influx by FLIPR assay
MEASURED PARAMETER: pIC50
Numbers only, as −log10 of the molar value.

Requested read-out: pIC50. Entry: CCCc1nc(CC)n2c1C(CCc1ccc(C(F)(F)F)cc1)N([C@@H](C(=O)NC)c1ccccc1)CC2 (some centres undefined)
6.65

// batch mode: one pIC50 value per listed entry
1. CCc1nc(SC)c2n1CCN([C@@H](C(=O)NC)c1ccccc1)[C@H]2CCc1ccc(C(F)(F)F)cc1
2. CNC(=O)[C@@H](c1ccccc1)N1CCn2c(COC)nc(Cl)c2[C@@H]1CCc1ccc(C(F)(F)F)cc1 (mixture of isomers)
3. CCOc1nc(CC)n2c1C(CCc1ccc(C(F)(F)F)cc1)N([C@@H](C(=O)NC)c1ccccc1)CC2 (mixture of isomers)

7.85
7.60
5.56

---

Provide the reported log10 of IC50 of each item.
- SYSTEM NAME: Orexin/Hypocretin receptor type 1 (Homo sapiens)
- Sequence (O43613 whole entry): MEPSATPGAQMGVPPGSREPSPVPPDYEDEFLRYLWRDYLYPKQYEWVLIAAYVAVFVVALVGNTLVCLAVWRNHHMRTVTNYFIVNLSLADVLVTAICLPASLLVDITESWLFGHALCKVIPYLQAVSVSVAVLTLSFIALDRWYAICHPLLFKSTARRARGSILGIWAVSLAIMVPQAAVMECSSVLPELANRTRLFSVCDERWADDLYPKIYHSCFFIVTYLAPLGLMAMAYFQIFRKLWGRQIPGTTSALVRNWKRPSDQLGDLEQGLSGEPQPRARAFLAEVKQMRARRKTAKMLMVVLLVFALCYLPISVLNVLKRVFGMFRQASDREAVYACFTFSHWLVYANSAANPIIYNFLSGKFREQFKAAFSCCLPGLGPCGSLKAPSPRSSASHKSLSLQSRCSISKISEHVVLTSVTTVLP
- PROCEDURE SUMMARY: Antagonist activity at human OX1 receptor expressed in CHO cells assessed as inhibition of orexin A-induced calcium influx by FLIPR assay
log10 IC50, nM

Take a look at these entries with their results.
Requested read-out: log10 of IC50. Entry: CNC(=O)[C@@H](c1ccccc1)N1CCn2c(C3CC3)nc(Cl)c2[C@@H]1CCc1ccc(C(F)(F)F)cc1
1.49

How about this molecule: CCc1nc(SC)c2n1CCN([C@@H](C(=O)NC)c1ccccc1)[C@H]2CCc1ccc(C(F)(F)F)cc1
1.93

How about this molecule: CNC(=O)[C@@H](c1ccccc1)N1CCn2c(C(C)C)nc(Cl)c2[C@@H]1CCc1ccc(C(F)(F)F)cc1
2.50

How about this molecule: CCc1nc(C2CC2)c2n1CCN([C@@H](C(=O)NC)c1ccccc1)[C@H]2CCc1ccc(C(F)(F)F)cc1
3.62

How about this molecule: CCc1nc(C(=O)NC)c2n1CCN([C@@H](C(=O)NC)c1ccccc1)C2CCc1ccc(C(F)(F)F)cc1 (stereo partly drawn)
2.69

// batch mode: one log10 of IC50 value per listed entry
1. CCCc1nc(Cl)c2n1CCN([C@@H](C(=O)NC)c1ccccc1)[C@H]2CCc1ccc(C(F)(F)F)cc1
2. CCc1nc(I)c2n1CCN([C@@H](C(=O)NC)c1ccccc1)C2CCc1ccc(C(F)(F)F)cc1 (mixture of isomers)

2.66
2.86

---

- PROCEDURE SUMMARY: Plasma protein binding in human
- Assay type: ADME, cell-free
- RUN CONDITIONS: read-out: PPB
MEASURED PARAMETER: fraction unbound
One number for each entry.

Requested read-out: fraction unbound. Entry: CNC(=O)[C@@H](c1ccccc1)N1CCn2c(C3CC3)nc(Cl)c2[C@@H]1CCc1ccc(C(F)(F)F)cc1
0.01

More entries:
Requested read-out: fraction unbound. Entry: CCc1nc(Cl)c2n1CCN([C@@H](C(=O)NC)c1ccccc1)[C@H]2CCc1ccc(C(F)(F)F)cc1
0.01

---

- SYSTEM NAME: Orexin/Hypocretin receptor type 1 (Homo sapiens)
- PROCEDURE SUMMARY: Antagonist activity at human OX1 receptor expressed in CHO cells assessed as inhibition of orexin A-induced calcium influx by FLIPR assay
pIC50: −log10 of the molar value.
Classification field: Yes = pIC50 at or over 6; No = pIC50 under 6.

Worked set:
Please tell me: is the compound CCc1nc(CC)n2c1C(CCc1ccc(C(F)(F)F)cc1)N([C@@H](C(=O)NC)c1ccccc1)CC2 (mixture of isomers) at or over 6 in terms of pIC50?
No

How about this compound: CCc1nc(C(C)C)c2n1CCN([C@@H](C(=O)NC)c1ccccc1)C2CCc1ccc(C(F)(F)F)cc1 (some centres not stated)
No

How about this compound: CCCc1nc(CC)n2c1C(CCc1ccc(C(F)(F)F)cc1)N([C@@H](C(=O)NC)c1ccccc1)CC2 (some centres not stated)
No

How about this compound: CCc1nc(C(=O)N(C)C)c2n1CCN([C@@H](C(=O)NC)c1ccccc1)C2CCc1ccc(C(F)(F)F)cc1 (some centres not stated)
Yes

How about this compound: CNC(=O)[C@@H](c1ccccc1)N1CCn2c(COC)nc(Cl)c2[C@@H]1CCc1ccc(C(F)(F)F)cc1 (mixture of isomers)
No

How about this compound: CCc1ncc2n1CCN([C@@H](C(=O)NC)c1ccccc1)C2CCc1ccc(C(F)(F)F)cc1 (mixture of isomers)
No

How about this compound: CNC(=O)[C@@H](c1ccccc1)N1CCn2c(C)nc(Cl)c2[C@@H]1CCc1ccc(C(F)(F)F)cc1
Yes

How about this compound: CCc1nc(C)c2n1CCN([C@@H](C(=O)NC)c1ccccc1)C2CCc1ccc(C(F)(F)F)cc1 (mixture of isomers)
No

How about this compound: C=Cc1nc(CC)n2c1C(CCc1ccc(C(F)(F)F)cc1)N([C@@H](C(=O)NC)c1ccccc1)CC2 (single isomer, unassigned)
Yes

Consider the additional compound presented here.
Please tell me: is the compound CCOc1nc(CC)n2c1C(CCc1ccc(C(F)(F)F)cc1)N([C@@H](C(=O)NC)c1ccccc1)CC2 (mixture of isomers) at or over 6 in terms of pIC50?
No

---

Provide the reported IC50 of each item.
- SYSTEM NAME: UniProt:O43614
- PROCEDURE SUMMARY: Antagonist activity at human OX2 receptor expressed in CHO cells assessed as inhibition of orexin A-induced calcium influx by FLIPR assay
Form field: result (number plus unit)

Take a look at these entries with their results.
Requested read-out: IC50. Entry: CCc1nc(C(N)=O)c2n1CCN([C@@H](C(=O)NC)c1ccccc1)C2CCc1ccc(C(F)(F)F)cc1 (mixture of isomers)
194 nM

How about this compound: CNC(=O)[C@@H](c1ccccc1)N1CCn2c(C3CC3)nc(Cl)c2[C@@H]1CCc1ccc(C(F)(F)F)cc1
9 nM

Okay, next one:
Requested read-out: IC50. Entry: CCc1nc(Cl)c2n1CCN([C@@H](C(=O)NC)c1ccccc1)[C@@H]2CCc1ccc(C(F)(F)F)cc1
107 nM
